B1: library; a variant is named by its letters at N, in order (parent)
chain: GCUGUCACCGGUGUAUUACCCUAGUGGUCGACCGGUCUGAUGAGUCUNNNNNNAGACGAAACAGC

- Variants of: B1
- Assay Summary: normalized RNA/DNA level with ligand (relative to sTRSVctl = 100) (log10 (% of sTRSVctl)); ligand: hypoxanthine (xanthine aptamer); higher = less ribozyme self-cleavage, higher mRNA level
- Study Conditions: ligand concentration (+) RNA-Seq: 5 mM, HEK293T, reporter: mCherry (pCS4076), ligand present: yes
Below: a set of entries, each annotated with reported normalized RNA/DNA level with ligand (log10).
Kindly provide the number alone.

These recorded examples may help you get a feel for the data.
>  <Alteration>
GACUGG

>  <Recorded Value>
1.76

$$$$
>  <Alteration>
CGAUUG

>  <Recorded Value>
1.92

$$$$
>  <Alteration>
CCGAUG

>  <Recorded Value>
1.82

$$$$
>  <Alteration>
GGGGAU

>  <Recorded Value>
1.9

$$$$
>  <Alteration>
CGCUGU

>  <Recorded Value>
1.94

$$$$

For the variant `CGUGCC` , what normalized RNA/DNA level with ligand (log10) is on record? 1.97

Note, next up: `UCAUUC` 2

Also check `CUGGUA` 1.93

Record: `UAAUCU` 1.96

Try the variant `CCUGUG` 1.97

Entry to check: `GAAGGU` 1.91

Lookup `UGUCAC` 1.96

Try this variant too: `CUUAAU` 1.9

`AAUGAC` ? 1.89

# repeat for `UAUCGG` 1.86
